The values you see were collected from patent US12279521B2.

assayProtocol: Solubility in organic solvents via HPTLC (after 24 hours and 7 days)
Format: physicochemical
testContext: toluene, 24 hours, room temperature
readoutKind: Solubility after 24 hours, Toluene

Please review the entries below; each comes with its answer.
# smiles, Solubility after 24 hours, Toluene
data = [
    ("c1ccc(-c2cc(-c3ccccc3)cc(-c3cccc(-c4cccc(C5(c6cccc(-c7cccc(-c8cc(-c9ccccc9)cc(-c9ccccc9)c8)c7)c6)c6ccccc6-c6c(-c7ccccc7)cccc65)c4)c3)c2)cc1", ">50 mg/mL"),
    ("Cc1ccc2c(c1)-c1c(-c3cccc(-c4ccccc4)c3)cccc1C2(c1cccc(-c2cccc3c2-c2ccccc2C3(C)C)c1)c1cccc(-c2cccc3c2-c2ccccc2C3(C)C)c1", "<30 mg/mL"),
]

Now turn to the next compound.
Please report the recorded Solubility after 24 hours, Toluene for c1ccc(-c2cc(-c3ccccc3)cc(-c3cccc(-c4cccc(C5(c6cccc(-c7cccc(-c8cc(-c9ccccc9)cc(-c9ccccc9)c8)c7)c6)c6cc7c(cc6-c6c5ccc5c6-c6ccccc6C56c5ccccc5-c5ccccc56)OCO7)c4)c3)c2)cc1 .
<20 mg/mL
